target: human MC1R (Homo sapiens); construct: expressed in transfected cells; host or cells: HEK-293 cells stably expressing hMC1R and the GScAMP22F cAMP sensor; experiment: split-luciferase cAMP sensor assay, agonist mode, hMC1R; format: cell-based; details: MC4R versus MC1R
Sequence (Q01726 whole entry): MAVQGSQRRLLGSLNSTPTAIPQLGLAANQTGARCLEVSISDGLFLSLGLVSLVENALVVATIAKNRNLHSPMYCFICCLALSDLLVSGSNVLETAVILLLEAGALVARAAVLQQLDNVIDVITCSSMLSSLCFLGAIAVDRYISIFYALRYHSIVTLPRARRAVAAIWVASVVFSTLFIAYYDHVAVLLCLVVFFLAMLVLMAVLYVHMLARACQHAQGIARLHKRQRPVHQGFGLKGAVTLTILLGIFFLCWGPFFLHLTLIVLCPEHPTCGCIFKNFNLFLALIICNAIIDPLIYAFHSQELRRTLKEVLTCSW
Positions of bridges follow the written chain, without caps; N, C: chain ends. Non-standard residues stand in square brackets, D forms with d. Residues, ends and D or L forms follow the SMILES beside them. Cit = NC(=O)NCCC[C@H](N)C(=O)O; Aib = CC(C)(N)C(=O)O
Quick reference for MC4R selectivity vs MC1R among some compounds

[
  {
    "Compound": "CC1(C)NC(=O)CSC[C@@H](C(N)=O)NC(=O)[C@H](Cc2c[nH]c3ccccc23)NC(=O)[C@H](CCCNC(=N)N)NC(=O)[C@@H](Cc2ccccc2)NC(=O)[C@H](CCCNC(=N)N)NC1=O [CTX-1648] ({CH2CO}-[Aib]R[dF]RWC-NH2; thioether N-6)",
    "MC4R selectivity vs MC1R": 13
  },
  {
    "Compound": "COc1ccc(C[C@H]2NC(=O)[C@H](CCCNC(N)=O)NC(=O)C(C)(C)NC(=O)[C@@H](NC(=O)[C@H](CCCNC(=N)N)NC(C)=O)CSSC[C@@H](C(N)=O)NC(=O)[C@H](Cc3ccccc3)NC(=O)[C@H](CCCNC(=N)N)NC2=O)cc1 [CTX-1299] (Ac-RC[Aib][Cit][dY](Me)RFC-NH2; disulfide 2-8)",
    "MC4R selectivity vs MC1R": 3.66
  },
  {
    "Compound": "N=C(N)NCCC[C@@H]1NC(=O)[C@@H](Cc2ccccc2)NC(=O)[C@H](Cc2c[nH]cn2)NC(=O)CNC(=O)CSC[C@@H](C(N)=O)NC(=O)[C@H](Cc2ccccc2)NC1=O [CTX-1653] ({CH2CO}-GH[dF]RFC-NH2; thioether N-6)",
    "MC4R selectivity vs MC1R": 0.83
  },
  {
    "Compound": "CC(=O)N[C@@H](CCCNC(=N)N)C(=O)N[C@H]1CSSC[C@@H](C(N)=O)NC(=O)[C@H](Cc2c[nH]c3ccccc23)NC(=O)[C@H](CCCNC(=N)N)NC(=O)[C@@H](Cc2ccccc2)NC(=O)[C@H](Cc2c[nH]cn2)NC(=O)C(C)(C)NC1=O",
    "MC4R selectivity vs MC1R": 1.31
  }
]

Origin of measurements: patent US20240391954A1
